study.target: BRD4-1 (Homo sapiens)
Construct: made in house; host or cells: Escherichia coli
assay.details: HTRF (TR-FRET) assay, BRD4-1 binding to acetylated histone H4 peptide
experimental.setup: 60 nM BRD4-1, 200 nM H4 peptide, 60 minutes at 25° C.; geometric mean of a minimum of four determinations; read-out: HTRF BRD4-1 (IC50)
metric: pIC50
pIC50 is defined as minus the log10 of a concentration measured in mol/L.

Cc1cnn(C)c1-c1cc(-c2c(C)noc2C)cc2nc(C3CC3)[nH]c12 [Compound 1020-12] | 6.86
CC/C=C(\CC)c1cc(-c2c(C)noc2C)cc2nc(C3CC3)[nH]c12 [Compound 1020-28] | 7.14
CSc1nc2c(S(=O)(=O)NC3CCCC3)cc(-c3c(C)noc3C)cc2[nH]1 [Compound 1020-4] | 6.47
Cc1noc(C)c1-c1cc(-c2cccnc2-c2ccccc2)c2nc(C3CC3)[nH]c2c1 [Compound 1020-19] | 6.87
Cc1noc(C)c1-c1cc(N2C(=O)CCC2C)c2nc(C3CC3)[nH]c2c1 (stereo not shown) [Compound 1020-136] | 6.08
Cc1ccc2ncccc2c1-c1cc(-c2c(C)noc2C)cc2nc(C3CC3)n(C)c12 [Compound 1020-74] | 7.01
CCC(O)(CC)c1cc(-c2c(C)noc2C)cc2c1nc(C1CC1)n2C [Compound 1020-132] | 6.21
Cc1noc(C)c1-c1cc(C(O)C2CCCC2)c2nc(C3CC3)[nH]c2c1 (stereo not shown) [Compound 1020-121] | 7.02

Kindly note the recorded pIC50 for Cc1noc(C)c1-c1cc(C(O)(c2ccccc2)c2ccccc2)c2nc(C3CC3)[nH]c2c1 [Compound 1020-102] , which is 6.99

The compound Cc1n[nH]c(C)c1-c1cc(-c2c(C)noc2C)cc2nc(C3CC3(F)F)[nH]c12 (stereo not shown) [Compound 1020-78] showed pIC50 equal to 6.79

Noted for Cc1noc(C)c1-c1cc(S(=O)(=O)NC2CCCC2)c2nc(NCC(F)(F)F)[nH]c2c1 [Compound 1020-148] : its pIC50 reads 6.73

Entry Cc1ccc2ncccc2c1-c1cc(-c2c(C)noc2C)cc2[nH]c(C(F)(F)F)nc12 [Compound 1020-92] ; pIC50 = 6.88

Reported pIC50 of Cc1n[nH]c(C)c1-c1cc(-c2c(C)noc2C)cc2nc(C3CC3)n(C)c12 [Compound 1020-72] : 7.00

Sure, the documented pIC50 for Cc1ccnc(C)c1-c1cc(-c2c(C)noc2C)cc2nc(C3CC3)[nH]c12 [Compound 1020-57] is 6.96

Note to self: pIC50 recorded for Cc1noc(C)c1-c1cc(C(C)c2ccc(F)cc2)c2[nH]c(C3CC3)nc2c1 (stereo not shown) [Compound 1020-44] was 6.86

# pIC50 (compound: Cc1n[nH]c(C)c1-c1cc(-c2c(C)noc2C)cc2[nH]c(NCC3CC3)nc12 [Compound 1020-79] ) is 6.79

get_value(item= Cc1nc2cc(-c3c(C)noc3C)cc(-c3c(C)n[nH]c3C)c2[nH]1 [Compound 1020-77] , readout=pIC50) returns 6.61

# pIC50 of Cc1n[nH]c(C)c1-c1cc(-c2c(C)noc2C)cc2nc(N)[nH]c12 [Compound 1020-96] = 6.56

Please fill in: pIC50 reported for COc1nc2c(-c3c(C)ccc4ncccc34)cc(-c3c(C)noc3C)cc2[nH]1 [Compound 1020-90] = 6.96

// field: pIC50; key: Cc1n[nH]c(C)c1-c1cc(-c2c(C)noc2C)cc2[nH]c(NC3CC3)nc12 [Compound 1020-81] ; value = 6.77

Query Cc1ccnc(C)c1-c1cc(-c2c(C)noc2C)cc2[nH]cnc12 [Compound 1020-84] yields pIC50 of 6.32

Reported pIC50 ( Cc1ccc2ncccc2c1-c1cc(-c2c(C)noc2C)cc2[nH]c(C(O)CCO)nc12 (stereo not shown) [Compound 1020-89] ) = 6.42

Data point: Cc1ccc2ncccc2c1-c1cc(-c2c(C)noc2C)cc2[nH]c(-c3cnn(C)c3)nc12 [Compound 1020-88] ; pIC50 = 6.98

The value of pIC50 measured for the compound Cc1noc(C)c1-c1cc(S(=O)(=O)NC2CCCC2)c2nc(Cc3ccccc3)[nH]c2c1 [Compound 1020-141] turned out to be 6.15
